This collection of values is drawn from ChEMBL document CHEMBL2086262.

- Species on record: Homo sapiens
- method: Inhibition of human recombinant FBPase using fructose-1,6-biphosphate as substrate at 10 uM incubated for 3 mins prior to substrate addition by spectrophotometric analysis
Please enter yes (1) where inhibition is greater than or equal to 80%, and no (0) where it is lower.

>>> class_name("CCN1C(=O)/C(=C/c2ccc(O)c(S(=O)(=O)O)c2)SC1=S")
"no (0)"
>>> class_name("COc1ccc(C(=O)/C=C2/Nc3ccc([N+](=O)[O-])cc3NC2=O)cc1")
"no (0)"
>>> class_name("CCOC(=O)c1csc(-c2csc(CCNC(=O)c3ccccc3)n2)n1")
"yes (1)"
>>> class_name("Cc1cc(Cl)ccc1OCCCC(=O)NC(CC(C)C)C(=O)O (stereo not given)")
"no (0)"

---

- method: Inhibition of human recombinant FBPase using fructose-1,6-biphosphate as substrate incubated for 3 mins prior to substrate addition by spectrophotometric analysis
IC50 under 2000 nM gets TRUE, anything at or over 2000 nM gets FALSE.

>>> class_name("CCCOc1cc2ncnc(Nc3cccc(-c4csc(C)n4)c3)c2cc1OC")
"FALSE"
>>> class_name("O=C(O)CCc1c(CO)[nH]c2cc(Cl)cc(Cl)c12")
"FALSE"
>>> class_name("C#Cc1cccc(Nc2ncnc3cc(OC)c(OC)cc23)c1")
"TRUE"
>>> class_name("CCOc1cc2nc(CN3CCOCC3)nc(Nc3cccc(Br)c3)c2cc1OCC")
"FALSE"
>>> class_name("CCNCc1nc(Nc2cccc(-c3csc(C)n3)c2)c2cc(OCC)c(OCC)cc2n1")
"FALSE"
>>> class_name("CCOc1cc2ncnc(Nc3cccc(Cl)c3)c2cc1OCC")
"TRUE"
>>> class_name("COC(=O)CC(=O)CC(=O)c1cccc([N+](=O)[O-])c1")
"FALSE"
>>> class_name("CCOc1cc2nc(Cc3ccccc3)nc(Nc3cccc(Br)c3)c2cc1OCC")
"FALSE"
>>> class_name("NC(=O)CCc1c(C(=O)O)[nH]c2cc(Cl)cc(Cl)c12")
"FALSE"
>>> class_name("CCOc1cc2ncnc(Nc3cccc(-c4csc(N(C)C)n4)c3)c2cc1OCC")
"FALSE"
>>> class_name("CCOc1cc2ncnc(Nc3ccc(Cl)c(C)c3)c2cc1OCC")
"FALSE"
>>> class_name("CCOc1cc2ncnc(Nc3cccc(F)c3)c2cc1OCC")
"FALSE"
>>> class_name("O=C(O)CCCCc1c(C(=O)O)[nH]c2cc(Cl)cc(Cl)c12")
"TRUE"
>>> class_name("O=C(O)Cc1c(C(=O)O)[nH]c2cc(Cl)cc(Cl)c12")
"FALSE"
>>> class_name("CCOc1cc2ncnc(Nc3cccc(-c4ccco4)c3)c2cc1OCC")
"TRUE"
>>> class_name("CCOc1cc2ncnc(Nc3cccc(-c4csc(Cc5ccccc5)n4)c3)c2cc1OCC")
"FALSE"
>>> class_name("O=C(O)c1ccc2c(Nc3cccc(Br)c3)ncnc2c1")
"FALSE"
>>> class_name("CCOc1cc2nc(C(C)C)nc(Nc3cccc(-c4csc(C)n4)c3)c2cc1OCC")
"FALSE"
>>> class_name("CCOc1cc2ncnc(Nc3ccc(Cl)c(Cl)c3)c2cc1OCC")
"FALSE"
>>> class_name("CCOc1cc2ncnc(Nc3cccc(-c4cnc(C)o4)c3)c2cc1OCC")
"FALSE"
>>> class_name("COc1cc2c(Nc3cccc(-c4csc(C)n4)c3)ncnc2cc1OC1CCCC1")
"FALSE"
>>> class_name("CCN1C(=O)/C(=C/c2ccc(O)c(S(=O)(=O)O)c2)SC1=S")
"FALSE"
>>> class_name("C#Cc1cccc(Nc2ncnc3cc(OCC)c(OCC)cc23)c1")
"FALSE"
>>> class_name("O=C(CCc1c(C(=O)O)[nH]c2cc(Cl)cc(Cl)c12)NO")
"TRUE"
>>> class_name("CCOc1cc2ncnc(Nc3cccc(-c4csc(OC)n4)c3)c2cc1OCC")
"TRUE"
>>> class_name("CCOc1cc2nc(-n3ccnc3)nc(Nc3cccc(-c4csc(C)n4)c3)c2cc1OCC")
"TRUE"
>>> class_name("C=CCN1C(=O)/C(=C/c2ccccc2OCC(=O)O)SC1=S")
"FALSE"
>>> class_name("CCOc1cc2c(Nc3cccc(-c4csc(C)n4)c3)ncnc2cc1OC")
"TRUE"
>>> class_name("CCC(C)Oc1cc2ncnc(Nc3cccc(-c4csc(C)n4)c3)c2cc1OC (stereo not given)")
"FALSE"
>>> class_name("CCOc1cc2ncnc(Nc3cccc(-c4nc(C(N)=O)cs4)c3)c2cc1OCC")
"TRUE"
>>> class_name("O=C(O)c1ccccc1C(=O)CCC(=O)c1ccccc1C(=O)O")
"TRUE"
>>> class_name("CCOc1cc2ncnc(Nc3cc(-c4csc(C)n4)ccc3C)c2cc1OCC")
"TRUE"
>>> class_name("CCOc1cc2ncnc(Nc3cccc(-c4ccccc4)c3)c2cc1OCC")
"FALSE"
>>> class_name("COc1ccc(C(=O)/C=C2/Nc3ccc([N+](=O)[O-])cc3NC2=O)cc1")
"TRUE"
>>> class_name("CCOc1cc2ncnc(Nc3cc(-c4csc(C)n4)c(F)cc3F)c2cc1OCC")
"FALSE"
>>> class_name("CCN(CC)c1nc(Nc2cccc(Br)c2)c2cc(OC)c(OC)cc2n1")
"FALSE"
>>> class_name("COc1cc2ncnc(Nc3cccc(Br)c3)c2cc1[N+](=O)[O-]")
"FALSE"
>>> class_name("Cc1nc(-c2cccc(Nc3ncnc4cc5ccccc5cc34)c2)cs1")
"FALSE"
>>> class_name("CN(C)C(=O)c1[nH]c2cc(Cl)cc(Cl)c2c1CCC(=O)O")
"FALSE"
